- TEST_SUMMARY: Binding affinity to HCV NS3 protease by spectrophotometry
- Design: species or system Hepacivirus hominis
PROPERTY_LABEL: Ki (nM)

P. C=CCNC(=O)C(=O)[C@@H]1CCCCCCCOC[C@H](NC(=O)N[C@H](CN2C(=O)C3CCC(C3)C2=O)C(C)(C)C)C(=O)N2C[C@H]3[C@@H]([C@H]2C(=O)N1)C3(C)C
Q. C=CCNC(=O)C(=O)[C@@H]1CCCCCCCOC[C@H](NC(=O)N[C@H](CN(C)S(=O)(=O)CC)C(C)(C)C)C(=O)N2C[C@H]3[C@@H]([C@H]2C(=O)N1)C3(C)C
R. C=CCNC(=O)C(=O)[C@@H]1CCCCCCCCC[C@H](NC(=O)OC(C)(C)C)C(=O)N2C[C@H]3[C@@H]([C@H]2C(=O)N1)C3(C)C
S. C=CCNC(=O)C(=O)[C@@H]1CCCCCCCOC[C@H](NC(=O)OC(C)(C)C)C(=O)N2C[C@H]3[C@@H]([C@H]2C(=O)N1)C3(C)C
Inquiry: // smallest Ki at index 0, largest at the end Reply format: the labels, ordered as requested.
Reply text: P, Q, R, S

* * *

- TEST_SUMMARY: Binding affinity to HCV NS3 protease by spectrophotometry
- Set-up: species or system Hepacivirus hominis
pKi: −log10 of the molar value.
PROPERTY_LABEL: pKi

Worked set:
{"columns": ["COMPOUND", "MEAS_VALUE"],
 "data": [
  ["C=CCNC(=O)C(=O)[C@@H]1CCCCCCCOC[C@H](NC(=O)N[C@H](CN(C)S(=O)(=O)c2cccs2)C(C)(C)C)C(=O)N2C[C@H]3[C@@H]([C@H]2C(=O)N1)C3(C)C", 7.85],
  ["C=CCNC(=O)C(=O)[C@@H]1CCCCCCCOC[C@H](NC(=O)N[C@H](CN2CCCCC2=O)C(C)(C)C)C(=O)N2C[C@H]3[C@@H]([C@H]2C(=O)N1)C3(C)C", 7.68],
  ["CC(C)(C)OC(=O)N[C@@H]1C(=O)N2C[C@H]3[C@@H]([C@H]2C(=O)N[C@H](C(=O)C(N)=O)CCCCCCCCCC1(C)C)C3(C)C", 6.60]
]}

1. CC(C)(C)NC(=O)N[C@H](C(=O)N1C[C@H]2[C@@H]([C@H]1C(=O)NC(CC1CCC1)C(=O)C(N)=O)C2(C)C)C(C)(C)C (stereo not given in full) [BOCEPREVIR]
2. C=CCNC(=O)C(=O)[C@@H]1CCCCCCCOC[C@H](NC(=O)N[C@H](CN2C(=O)CC(C)(C)CC2=O)C(C)(C)C)C(=O)N2C[C@H]3[C@@H]([C@H]2C(=O)N1)C3(C)C
Inquiry: Exercise: compare 1 and 2 ; which one has the greater pKi? Identify your pick by its label.
Reply text: 2

* * *

- TEST_SUMMARY: Binding affinity to HCV NS3 protease by spectrophotometry
- Parameters: species or system Hepacivirus hominis
PROPERTY_LABEL: Ki (nM)

Example compounds with recorded Ki:
{"columns": ["SMILES_RECORD", "UNIT_TAG", "Ki"],
 "data": [
  ["CC(C)(C)OC(=O)N[C@H]1CS(=O)(=O)CCCCCCC[C@@H](C(=O)C(=O)NC2CC2)NC(=O)[C@@H]2[C@@H]3[C@H](CN2C1=O)C3(C)C", "nM", 670],
  ["C=CCNC(=O)C(=O)[C@@H]1CCCCCCC(=O)CC[C@H](NC(=O)OC(C)(C)C)C(=O)N2C[C@H]3[C@@H]([C@H]2C(=O)N1)C3(C)C", "nM", 320],
  ["C=CCNC(=O)C(=O)[C@@H]1CCCCNC(=O)OCCC[C@H](NC(=O)OC(C)(C)C)C(=O)N2C[C@H]3[C@@H]([C@H]2C(=O)N1)C3(C)C", "nM", 660]
]}

1. C=CCNC(=O)C(=O)[C@@H]1CCCCCCCO[C@@H](C)[C@H](NC(=O)N[C@H](CN2CCC(C)(C)CC2=O)C(C)(C)C)C(=O)N2C[C@H]3[C@@H]([C@H]2C(=O)N1)C3(C)C
2. C=CCNC(=O)C(=O)[C@@H]1CCCCCCCO[C@@H](C)[C@H](NC(=O)N[C@H](CN2C(=O)C3CCC(C3)C2=O)C(C)(C)C)C(=O)N2C[C@H]3[C@@H]([C@H]2C(=O)N1)C3(C)C
Inquiry: Which numeric Ki is bigger, that of 1 or that of 2 ? Give the label under which the chosen entry appears.
Reply text: 1
